- Assay protocol: Drug permeation (Papp) in the in vitro epithelial tissue model
- Condition info: human, pH 5, Papp, [PN159] 50 μM; galantamine 40 mg/mL pH 5.0, calcitonin 1 mg/mL pH 3.5, PTH1-34 1 mg/mL pH 4.5

| Record smiles | Papp A→B at 120 min, 40 mg/mL (×10⁻⁶ cm/s) |
| --- | --- |
| COc1ccc2c3c1O[C@H]1C[C@@H](O)C=C[C@@]31CCN(C)C2 | 6.2 |

====

Listed substances paired with reported LDH15
- System: EpiAirway™ human-derived tracheal/bronchial epithelial cells
- Assay protocol: Cytotoxicity (LDH assay)
- Format: cell-based
- Condition info: 15 minute treatment at the peptide's optimal concentration
Quantity measured: LDH15

| Substance | Tested target | Val |
| --- | --- | --- |
| Maleimide-GLGSLLKKAGKLKLKQPKSKRKV-amide [PN283] | EpiAirway™ human-derived tracheal/bronchial epithelial cells | 0.0007 |
| H-AAVALLPAVLLALLAPRKKRRQRRRPPQ-NH2 [PN27] | EpiAirway™ human-derived tracheal/bronchial epithelial cells | 0.0056 |
| H-LLETLLKPFQCRICMRNFSTRQARRNHRRRHRR-NH2 (cysteine pairing not given here) [PN202] | EpiAirway™ human-derived tracheal/bronchial epithelial cells | 0.0011 |
| H-RRRQRRKRGGDIMGEWGNEIFGAIAGFLG-NH2 [PN250] | EpiAirway™ human-derived tracheal/bronchial epithelial cells | 0.0016 |

====

- Assay protocol: Drug permeation (Papp) in the in vitro epithelial tissue model
- Condition info: human, pH 5, Papp, [PN159] 25 μM; galantamine 40 mg/mL pH 5.0, calcitonin 1 mg/mL pH 3.5, PTH1-34 1 mg/mL pH 4.5, PYY3-36 1 mg/mL pH 7.0

| Compound | Papp A→B at 120 min, 40 mg/mL |
| --- | --- |
| COc1ccc2c3c1O[C@H]1C[C@@H](O)C=C[C@@]31CCN(C)C2 [Galantamine, galantamine] | 5.1 ×10⁻⁶ cm/s |

====

- Tested on: EpiAirway™ human-derived tracheal/bronchial epithelial cells
- Assay protocol: Cytotoxicity (LDH assay)
- Type: cell-based
- Condition info: 60 minute treatment at the peptide's optimal concentration
Quantity measured: LDH60

| Substance | Val |
| --- | --- |
| Maleimide-GLGSLLKKAGKLKLKQPKSKRKV-amide [PN283] | 0.032 |
| H-AAVALLPAVLLALLAPRKKRRQRRRPPQ-NH2 [PN27] | 0.035 |
| H-LLETLLKPFQCRICMRNFSTRQARRNHRRRHRR-NH2 (cysteine pairing not given here) [PN202] | 0.02 |
| H-RRRQRRKRGGDIMGEWGNEIFGAIAGFLG-NH2 [PN250] | 0.031 |
